- TARGET: Sialic acid-binding Ig-like lectin 9 (Homo sapiens) (UniProt Q9Y336)
- Sequence (Q9Y336 whole entry): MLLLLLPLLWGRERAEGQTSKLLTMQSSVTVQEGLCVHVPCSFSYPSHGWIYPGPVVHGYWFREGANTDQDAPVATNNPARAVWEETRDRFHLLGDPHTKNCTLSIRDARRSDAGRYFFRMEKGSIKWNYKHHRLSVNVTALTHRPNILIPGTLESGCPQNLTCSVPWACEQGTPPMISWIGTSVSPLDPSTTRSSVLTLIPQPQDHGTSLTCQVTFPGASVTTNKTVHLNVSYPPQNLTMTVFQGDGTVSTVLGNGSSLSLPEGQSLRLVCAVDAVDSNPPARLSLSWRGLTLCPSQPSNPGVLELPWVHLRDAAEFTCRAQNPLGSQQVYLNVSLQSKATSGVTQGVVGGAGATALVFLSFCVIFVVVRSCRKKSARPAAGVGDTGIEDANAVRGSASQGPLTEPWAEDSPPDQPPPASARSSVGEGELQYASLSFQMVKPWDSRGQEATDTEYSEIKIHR
- TEST DESCRIPTION: Hs-Siglec9 ALPHAscreen SOP 20170721
- Set-up: scale not given: direction of the effect not stated beside the values
- CONDITION SUMMARY: 10 µM
EXPERIMENTAL READOUT: Percent Effect (%)
Provide the reading as a plain figure in %.

Query: I have this molecule here, Cc1cc(C)c2nc(CN3CC[C@@H](O)C3)cc(O)c2c1 , and I need its recorded Percent Effect.
Reply: 1.78

Query: I have this molecule here, N#Cc1cc(NC(=O)c2ccccc2)ccc1N1CCC(O)CC1 , and I need its recorded Percent Effect.
Reply: 6.67

Query: I have this molecule here, CC(NC(=O)NCCCN(C)C)c1ccc2c(c1)CCC(=O)N2 (stereo unspecified) , and I need its recorded Percent Effect.
Reply: -0.949

Query: I have this molecule here, COc1cc(C)nc(N2CCN(C(=O)CCn3cc(C)cn3)CC2)n1 , and I need its recorded Percent Effect.
Reply: 2.37

Query: I have this molecule here, NC(=O)c1ccc(S(=O)(=O)NC2CCN(Cc3ccccc3)C2=O)cc1 (stereo unspecified) , and I need its recorded Percent Effect.
Reply: 5.49

Query: I have this molecule here, O=C(Nc1ccnc(OC2CCOC2)c1)C1CCC1 (stereo unspecified) , and I need its recorded Percent Effect.
Reply: 4.31
